Assign kon to each entry below.
molecular target: T1, Recombinant human CD4 (R&D Systems, Cat. 10327-CD) (human, UniProt P01730 26-390, limits assumed); test: BLI Octet, non-clonal supernatant on AMC sensor, 100 nM human CD4, 1:1 local fit;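 also: Single-concentration kinetics per supernatant, with the 1:1 model fitted across both the association and dissociation phases of the sensorgram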
T1 construct: Bought reagent; also called huCD4
All answers are understood in M⁻¹ s⁻¹, so give the number only.

Problem: Fill blank: measured kon of the binder 75110_03D16A (antibody, V domains shown, Tested as non-clonal AlivaMab Mouse Kappa hybridoma supernatant, captured by anti-mouse IgG Fc sensor) VH: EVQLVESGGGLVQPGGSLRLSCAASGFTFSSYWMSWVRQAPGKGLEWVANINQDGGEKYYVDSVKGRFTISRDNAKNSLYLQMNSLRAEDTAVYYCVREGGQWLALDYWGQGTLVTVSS VL: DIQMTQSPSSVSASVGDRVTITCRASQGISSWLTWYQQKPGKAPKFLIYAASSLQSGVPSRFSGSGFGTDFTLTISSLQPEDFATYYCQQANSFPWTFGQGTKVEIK is ____.
Solution: 220000

Problem: One more binder: 75110_04K10A (antibody, V domains shown, Tested as non-clonal AlivaMab Mouse Kappa hybridoma supernatant, captured by anti-mouse IgG Fc sensor) VH: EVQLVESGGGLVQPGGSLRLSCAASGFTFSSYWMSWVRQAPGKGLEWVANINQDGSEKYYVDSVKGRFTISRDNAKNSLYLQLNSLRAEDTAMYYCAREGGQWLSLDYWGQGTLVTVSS VL: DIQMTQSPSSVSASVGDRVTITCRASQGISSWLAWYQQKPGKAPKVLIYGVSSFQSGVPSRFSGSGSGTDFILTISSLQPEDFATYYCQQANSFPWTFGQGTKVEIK
Solution: 290000

Problem: One more binder: 75110_03C01A (antibody, V domains shown, Tested as non-clonal AlivaMab Mouse Kappa hybridoma supernatant, captured by anti-mouse IgG Fc sensor) VH: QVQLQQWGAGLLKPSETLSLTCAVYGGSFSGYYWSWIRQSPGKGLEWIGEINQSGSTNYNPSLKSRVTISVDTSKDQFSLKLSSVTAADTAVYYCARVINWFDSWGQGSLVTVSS VL: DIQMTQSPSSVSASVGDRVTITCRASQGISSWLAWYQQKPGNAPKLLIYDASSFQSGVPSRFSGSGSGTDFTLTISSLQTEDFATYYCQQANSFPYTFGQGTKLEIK
Solution: 150000

Problem: One more binder: 75110_14I16A (antibody, V domains shown, Tested as non-clonal AlivaMab Mouse Kappa hybridoma supernatant, captured by anti-mouse IgG Fc sensor) VH: QVQLQESGPGLVKPSETLSLTCTVSNGSISSYYWSWIRQSAGKGLEWIGRIYTSGSTNYNPSLKSRVTMLVDTSKNQFSLKLSSVTAADTAVYYCARDREDYYYYGMDVWGQGTTVTVSS VL: DIQMTQSPSSLSASVGDRVTITCQASHDISNYLNWYQQKPGKAPKLLLYYASNLETGVPSRFSGSGSGTDFTFTITSLQPEDIGTYSCQQYDNLPLTFGGGTKVEIK
Solution: 42700

Problem: One more binder: 75110_07H07A (antibody, V domains shown, Tested as non-clonal AlivaMab Mouse Kappa hybridoma supernatant, captured by anti-mouse IgG Fc sensor) VH: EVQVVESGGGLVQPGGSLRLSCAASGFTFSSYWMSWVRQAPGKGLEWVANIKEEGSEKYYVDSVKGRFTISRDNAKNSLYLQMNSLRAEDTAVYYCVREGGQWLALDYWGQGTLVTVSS VL: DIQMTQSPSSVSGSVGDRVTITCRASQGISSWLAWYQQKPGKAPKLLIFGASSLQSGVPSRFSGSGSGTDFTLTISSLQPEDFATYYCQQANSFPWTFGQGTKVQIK
Solution: 110000
